Every entry's value here was drawn from patent US20120316071A1.

target: T1, Recombinant Human DLL4 (delta-like protein 4) (human, UniProt Q9NR61 27-524); test: ELISA, DLL4 coated on plate; Fab at 0.05 (head prints µM, text says nM)
T1 construct: Bought recombinant protein (R&D Systems Cat#1506-D4/CF); also called rHuman DLL4; Delta-like 4
Catalogue of ELISA signal values
Answer with the value's number alone.

Binder	Reported Measurement
Fab VH5-51_IGHD5-18*01>3_IGHJ4*01 G100K/G104T G24T/S28R/G35V (H:KT TRV) & V3-4_IGLJ1*01 V91L/S96P S52M (Fab, V domains shown, Tested as a Fab made in E. coli; also called H:KT TRV & L:LP S52M) VH: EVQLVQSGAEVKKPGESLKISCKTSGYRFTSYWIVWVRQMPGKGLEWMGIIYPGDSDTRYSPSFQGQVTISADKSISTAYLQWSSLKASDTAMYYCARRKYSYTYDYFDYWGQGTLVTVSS VL: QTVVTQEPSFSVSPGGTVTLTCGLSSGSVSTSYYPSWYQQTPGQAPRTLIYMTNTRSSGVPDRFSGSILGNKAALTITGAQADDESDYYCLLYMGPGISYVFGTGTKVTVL	0.02
Fab VH5-51_IGHD5-18*01>3_IGHJ4*01 G100K/G104T G24T/S28R/G35V (H:KT TRV) & V3-4_IGLJ1*01 (Fab, V domains shown, Tested as a Fab made in E. coli; also called H:KT TRV & L:wt; Wildtype (light chain)) VH: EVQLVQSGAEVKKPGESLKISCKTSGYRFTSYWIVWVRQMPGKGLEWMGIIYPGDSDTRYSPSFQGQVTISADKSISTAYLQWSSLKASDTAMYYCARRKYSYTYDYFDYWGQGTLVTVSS VL: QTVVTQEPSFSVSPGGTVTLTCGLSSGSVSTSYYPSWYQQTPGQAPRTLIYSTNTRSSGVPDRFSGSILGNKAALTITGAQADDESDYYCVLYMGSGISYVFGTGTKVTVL	0.01
Fab VH5-51_IGHD5-18*01>3_IGHJ4*01 G100K/G104T G24T/S28R/G35V (H:KT TRV) & V3-4_IGLJ1*01 V91L/S96P S52G (Fab, V domains shown, Tested as a Fab made in E. coli; also called H:KT TRV & L:LP S52G) VH: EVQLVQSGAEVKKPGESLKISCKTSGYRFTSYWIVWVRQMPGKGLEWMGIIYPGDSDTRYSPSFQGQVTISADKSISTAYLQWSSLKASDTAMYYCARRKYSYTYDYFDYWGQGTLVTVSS VL: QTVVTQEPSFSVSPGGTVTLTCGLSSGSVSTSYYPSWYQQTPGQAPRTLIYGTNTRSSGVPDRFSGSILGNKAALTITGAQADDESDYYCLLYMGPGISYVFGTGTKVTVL	0.02

State the recorded ELISA signal for this entry: Fab VH5-51_IGHD5-18*01>3_IGHJ4*01 G100K/G104T G24T/S28R/G35V (H:KT TRV) & V3-4_IGLJ1*01 V91L/S96P (L:LP) (Fab, V domains shown, Tested as a Fab made in E. coli; also called H:KT TRV & L:LP) VH: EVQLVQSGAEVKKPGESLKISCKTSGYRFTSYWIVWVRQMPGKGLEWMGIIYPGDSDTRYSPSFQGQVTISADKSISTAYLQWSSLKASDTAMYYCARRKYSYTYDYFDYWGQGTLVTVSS VL: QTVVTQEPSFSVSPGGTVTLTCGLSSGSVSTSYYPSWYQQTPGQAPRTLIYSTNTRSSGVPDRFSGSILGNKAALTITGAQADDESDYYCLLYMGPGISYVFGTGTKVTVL
0.02
